Consider the following variants; for each one, report its protein stability index.
B1: CDC25A (parent)
chain: KPIVPTDGKRVIVVFHCEFSSERG

# Variants of: B1
# assay_explanation: protein stability index of a GFP-peptide fusion (GPS, HEK-293T) (PSI 1-6); higher = more stable;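 further: lentivirally expressed fusions sorted by FACS into six bins by GFP to DsRed ratio, PSI derived from sequencing read proportions per bin multiplied by bin number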
# conditions: c terminus: a fixed tail appended
Format: numeric value only, no unit, no commentary.

Problem: Give the measured protein stability index of E18W .
Result: 2.46

Problem: Please do the same for D7V as well.
Result: 2.3

Problem: Queued: I3S
Result: 1.1

Problem: Also, V13I please.
Result: 3.19

Problem: // repeat for D7Q and report
Result: 2.76

Problem: Then what about the variant V11H ?
Result: 1.58

Problem: How about this variant: P5I
Result: 2.42

Problem: What about this variant? H16N
Result: 1.87

Problem: Moving on to R23I
Result: 3.36

Problem: What do you have for F19A ?
Result: 1.71

Problem: Then what about the variant D7W ?
Result: 4.57

Problem: Next entry: V11A
Result: 1.93

Problem: I12L ?
Result: 3.39

Problem: // next record V14F
Result: 1.83

Problem: Input F15I
Result: 2.73

Problem: Quick one: V4S
Result: 2.49

Problem: Please do the same for F15Y as well.
Result: 1.72

Problem: Please give the result for P5G too.
Result: 1.69

Problem: Try S20Q next.
Result: 1.71

Problem: // next record I3W
Result: 4.26

Problem: // next record E22V
Result: 2.03
